The entries below come with measured composite z-score values attached.
test: small-molecule microarray binders of probe aEGFR, primary screen, biochemical, biotinylated probe, 635/667 nm fluorescence (AID 1097); settings: higher = more signal;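 also: probe is a biotinylated anti-EGFR antibody binding compounds printed on slides; score combines fluorescence near 667 nm and signal to noise of each spot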
test-readout: composite z-score

CCOC(=O)NN=C1C[C@@H](O)[C@@H](O)[C@@H]2[C@@H]3C(=O)N(Cc4ccccc4)C(=O)[C@@H]3CC[C@H]12 : -0.0387
COC(=O)CC=C[C@@H](C)[C@@H](C=NOC[C@H]1O[C@H](c2ccccc2)C=C[C@@H]1Oc1ccc(OC)cc1)OC : -0.253
COC(=O)[C@@H]1CC[C@H](C)[C@@H](c2ccc(C)cc2)N1C(=O)c1ccc(C=NO[C@H](C)c2cn([C@@H]3COC[C@H]3O)nn2)cc1 : 0.212
O=C1[C@H]2[C@H]3[C@H](O)[C@H](O)CC(=NOCc4ccccc4)[C@H]3CC[C@H]2C(=O)N1Cc1ccc2c(c1)OCO2 : 0.0102
CC(CCN1CCc2nc(-c3ccccc3)c(-c3ccccc3)cc2C1)=NOC[C@@H](O)COCc1ccco1 : -0.083
CCOC(=O)CCN1C(=O)[C@H]2[C@H]3[C@H](O)[C@H](O)CC(=NNC(=O)OCc4ccccc4)[C@@H]3CC[C@H]2C1=O : -0.0688
CO[C@H]1COC(=O)CC=C[C@@H](C)[C@H](OC)COC(=O)[C@@H]2CCCN2C(=O)CC=C[C@@H]1C : 0.0115

---

experiment: basal 3T3-L1 adipocyte mitochondrial potential changes, profiling panel, cell-based, JC-1 fluorescence, 3T3-L1 adipocytes, 24 h, 100 nL compound (AID 1168); details: JC-1 mitochondrial fluorescence, higher = more signal, called active from +8 up or from −8 down; also: test concentration not given here
test-readout: z-score

O=c1n(-c2ccccc2)c(=O)n2n1CC[C@@H]1C(=NOCc3ccccc3)[C@H]3O[C@H]3[C@@H](O)[C@@H]12 : -0.78
COc1ccc(COC(=O)NN=C2C[C@@H](O)[C@@H](O)[C@@H]3[C@@H]4C(=O)N(c5cccc(Oc6ccccc6)c5)C(=O)[C@@H]4CC[C@@H]23)cc1 : -0.0215
C[C@@H](c1ccccc1)N1C(=O)[C@H]2[C@H]3[C@H](O)[C@H](O)CC(=NOCc4ccccc4)[C@H]3CC[C@H]2C1=O : 0.925
C=CC[C@@H]1C=C[C@H](ON=C(C)CCN2CCc3nc(-c4ccccc4)c(-c4ccccc4)cc3C2)[C@@H](CO)O1 : -1.91
CCOC(=O)[C@H](CC(C)C)NC(=O)CCC1CC(OC(=O)NCc2ccc3c(c2)OCO3)CC2(CCCC(COC(=O)NCC3CCCCC3)O2)O1 (some centres not stated) : 0.368
CCOC(=O)[C@H](CC(C)C)NC(=O)CCC1CC(OC(=O)NCc2cccc3ccccc23)CC2(CCCC(COC(=O)NCCCN3CCCC3=O)O2)O1 (some centres not stated) : -0.636
CO[C@@H]1COC(=O)CC=C[C@H](C)[C@H](OC)COC(=O)[C@H](C)NC(=O)CC=C[C@H]1C : -0.878

---

target: Focal adhesion kinase 1 (Homo sapiens); experiment: small-molecule microarray binders of FAK, primary screen, biochemical, 635/667 nm fluorescence, BSA, DTT (AID 1130); conditions: PTK2 binding, 635 nm fluorescence, higher = more signal;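 also: composite of spot emission at 667 nm and signal to noise over triplicate slides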
The entries below come with measured composite z-score values attached.
test-readout: composite z-score

CCOC(=O)NN=C1C[C@@H](O)[C@@H](O)[C@@H]2[C@@H]3C(=O)N(c4cccc(Oc5ccccc5)c4)C(=O)[C@@H]3CC[C@H]12 : 0.0494
CC(=O)OC[C@H]1O[C@H](C#Cc2ccccc2)C=C[C@@H]1OC(C)=O : -0.203
O=C(NN=C1C[C@@H](O)[C@@H](O)[C@@H]2[C@@H]3C(=O)N(C4CCCCC4)C(=O)[C@@H]3CC[C@@H]12)OCc1ccccc1 : 0.0639
COc1cccc([C@H]2Oc3ccc(OC)cc3C(=NO[C@H](C)c3cn([C@H](CO)Cc4ccccc4)nn3)[C@@H]2O)c1 : -0.181
